Test system: MDA-MB-231
assay explanation: triple negative breast cell panel, EC50 2D/3D
Format: cell-based
protocol conditions: Homo sapiens; MDA-MB-231, 2D; read-out: EC50 [nM] 2D
property: EC50

CS(=O)(=O)CCNCc1ccc(-c2ccc3ncnc(Nc4ccc(OCc5cccc(F)c5)c(Cl)c4)c3c2)o1 [lapatinib, reference compound] | > 10000 nM
CN(C)C/C=C/C(=O)Nc1cc2c(Nc3ccc(F)c(Cl)c3)ncnc2cc1O[C@H]1CCOC1 [BIBW 2992] | > 10000 nM

---

Tested on: BT 549
assay explanation: triple negative breast cell panel, EC50 2D/3D
Assay type: cell-based
protocol conditions: Homo sapiens; BT 549, 3D; read-out: EC50 [nM] 3D
property: EC50 (nM)

CN(C)C/C=C/C(=O)Nc1cc2c(Nc3ccc(F)c(Cl)c3)ncnc2cc1O[C@H]1CCOC1 | 956

---

System: SUM 149PT
assay explanation: triple negative breast cell panel, EC50 2D/3D
Assay type: cell-based
protocol conditions: Homo sapiens, SUM149PT
# EC50 per entry
property: EC50 (nM)

CS(=O)(=O)CCNCc1ccc(-c2ccc3ncnc(Nc4ccc(OCc5cccc(F)c5)c(Cl)c4)c3c2)o1 [lapatinib, reference compound] | 1360
CN(C)C/C=C/C(=O)Nc1cc2c(Nc3ccc(F)c(Cl)c3)ncnc2cc1O[C@H]1CCOC1 | 17

---

Known EC50 of a selection of compounds
Tested on: HCC 1143
assay explanation: triple negative breast cell panel, EC50 2D/3D
Type: cell-based
protocol conditions: Homo sapiens, HCC1143; HCC 1143, 3D; read-out: EC50 [nM] 3D
property: EC50

CN(C)C/C=C/C(=O)Nc1cc2c(Nc3ccc(F)c(Cl)c3)ncnc2cc1O[C@H]1CCOC1 | > 1000 nM
CS(=O)(=O)CCNCc1ccc(-c2ccc3ncnc(Nc4ccc(OCc5cccc(F)c5)c(Cl)c4)c3c2)o1 [lapatinib, reference compound] | > 4000 nM
